# target: Amine oxidase [flavin-containing] A (Homo sapiens, UniProt P21397)
# Sequence (P21397 whole entry): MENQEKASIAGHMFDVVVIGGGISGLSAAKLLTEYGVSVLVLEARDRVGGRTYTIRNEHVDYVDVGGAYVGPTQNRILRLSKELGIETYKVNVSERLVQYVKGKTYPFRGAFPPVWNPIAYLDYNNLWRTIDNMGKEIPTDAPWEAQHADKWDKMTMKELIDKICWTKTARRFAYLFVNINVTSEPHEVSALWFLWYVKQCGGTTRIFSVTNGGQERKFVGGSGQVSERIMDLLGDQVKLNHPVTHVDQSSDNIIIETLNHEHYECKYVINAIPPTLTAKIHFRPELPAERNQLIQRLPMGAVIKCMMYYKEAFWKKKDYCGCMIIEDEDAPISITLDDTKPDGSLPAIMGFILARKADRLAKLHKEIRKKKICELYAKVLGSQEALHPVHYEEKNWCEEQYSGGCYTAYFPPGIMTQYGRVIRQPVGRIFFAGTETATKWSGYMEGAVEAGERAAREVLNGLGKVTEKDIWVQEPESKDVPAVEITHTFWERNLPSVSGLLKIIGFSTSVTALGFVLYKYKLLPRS
pKi: −log10 of the molar value.
measured-endpoint: pKi

COc1ccc2c3c(n(C)c2c1)C(C)=[N+](C)CC3 6.85
